Target: Human MDM4 (HDM4) 1-114 (Homo sapiens, UniProt O15151)
Sequence (O15151 1-114): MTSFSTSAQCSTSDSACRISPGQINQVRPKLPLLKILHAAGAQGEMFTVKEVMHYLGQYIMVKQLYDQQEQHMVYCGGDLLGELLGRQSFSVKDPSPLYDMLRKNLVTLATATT
pIC50: −log10 of the molar value. Where a SMILES comes first, the peptide text is derived from it. [ ]: non-standard residue; d: D form. The star is where a group is joined. Ala(thiazol-5-yl) = N[C@@H](Cc1cncs1)C(=O)O; Ala(4-thiazolyl) = N[C@@H](Cc1cscn1)C(=O)O; NMePhe(4-F) = CN[C@@H](Cc1ccc(F)cc1)C(=O)O; NMeAla(cPent) = CN[C@@H](CC1CCCC1)C(=O)O; Phe(4-Cl) = N[C@@H](Cc1ccc(Cl)cc1)C(=O)O; Phe(4-F) = N[C@@H](Cc1ccc(F)cc1)C(=O)O; NMeF = CN[C@@H](Cc1ccccc1)C(=O)O; NMeT = CN[C@H](C(=O)O)[C@@H](C)O; NMeV = CN[C@H](C(=O)O)C(C)C; Isovaleryl = CC(C)CC(=O)*; Methoxyacetyl = COCC(=O)*; hSer = N[C@@H](CCO)C(=O)O; NMeA = CN[C@@H](C)C(=O)O; dNMeA = CN[C@H](C)C(=O)O; Aze = O=C(O)[C@@H]1CCN1; Nme = COCCNCC(=O)O

MOLECULE	pIC50
COCC[C@@H]1NC(=O)[C@H]2CCCN2C(=O)[C@H](Cc2ccccc2)N(C)C(=O)[C@H](Cc2ccc(Cl)cc2)NC(=O)[C@H]([C@@H](C)OC(=O)CC(C)C)NC(=O)[C@H](Cc2ccc(F)cc2)NC(=O)CN(CCOC)C(=O)[C@@H](C)N(C)C(=O)[C@H](Cc2cscn2)NC(=O)[C@H](C)N(C)C1=O [compound 5] (cyclo([Ala(4-thiazolyl)][dNMeA][Nme][Phe(4-F)]T(Isovaleryl)[Phe(4-Cl)][NMeF][dP][hSer](Me)[NMeA]))	7.00 to 7.30
COCC[C@@H]1NC(=O)[C@H]2CCCN2C(=O)[C@H](Cc2ccccc2)N(C)C(=O)[C@H](Cc2ccc(Cl)cc2)NC(=O)[C@H]([C@@H](C)O)N(C)C(=O)[C@H](Cc2ccc(F)cc2)NC(=O)CN(CCOC)C(=O)[C@@H](C)N(C)C(=O)[C@H](Cc2cscn2)NC(=O)[C@H](C)N(C)C1=O [compound 19] (cyclo([Ala(4-thiazolyl)][dNMeA][Nme][Phe(4-F)][NMeT][Phe(4-Cl)][NMeF][dP][hSer](Me)[NMeA]))	7.00 to 7.30
COCC[C@@H]1NC(=O)[C@H]2CCCN2C(=O)[C@H](Cc2ccccc2)N(C)C(=O)[C@H](Cc2ccc(Cl)cc2)NC(=O)[C@H](C(C)C)N(C)C(=O)[C@H](Cc2ccc(F)cc2)NC(=O)[C@H](C)N(C)C(=O)[C@@H](C)N(C)C(=O)[C@H](Cc2cncs2)NC(=O)[C@H](C)N(C)C1=O [compound 26] (cyclo([NMeA][Phe(4-F)][NMeV][Phe(4-Cl)][NMeF][dP][hSer](Me)[NMeA][Ala(thiazol-5-yl)][dNMeA]))	7.00 to 7.30
COCC[C@@H]1NC(=O)[C@H]2CCCN2C(=O)[C@H](Cc2ccccc2)N(C)C(=O)[C@H](Cc2ccc(Cl)cc2)NC(=O)[C@H]([C@@H](C)OC(C)=O)NC(=O)[C@H](Cc2ccc(F)cc2)NC(=O)CN(CCOC)C(=O)[C@@H](C)N(C)C(=O)[C@H](Cc2cscn2)NC(=O)[C@H](C)N(C)C1=O [compound 1] (cyclo([Ala(4-thiazolyl)][dNMeA][Nme][Phe(4-F)]T(Ac)[Phe(4-Cl)][NMeF][dP][hSer](Me)[NMeA]))	7.30 to 7.60
COCC[C@@H]1NC(=O)[C@H]2CCCN2C(=O)[C@H](Cc2ccc(F)cc2)N(C)C(=O)[C@H](Cc2ccc(Cl)cc2)NC(=O)[C@@H]2CCN2C(=O)[C@H](Cc2ccc(F)cc2)NC(=O)CN(CCOC)C(=O)[C@@H](C)N(C)C(=O)[C@H](Cc2cscn2)NC(=O)[C@@H]2CCCN2C1=O [compound 21] (cyclo([Ala(4-thiazolyl)][dNMeA][Nme][Phe(4-F)][Aze][Phe(4-Cl)][NMePhe(4-F)][dP][hSer](Me)P))	7.00 to 7.30
COCC[C@@H]1NC(=O)[C@H]2CCCN2C(=O)[C@H](Cc2ccc(F)cc2)N(C)C(=O)[C@H](Cc2ccc(Cl)cc2)NC(=O)[C@@H]2CCN2C(=O)[C@H](Cc2ccc(F)cc2)NC(=O)CN(CCOC)C(=O)[C@@H](C)N(C)C(=O)[C@H](Cc2cscn2)NC(=O)[C@H](C(C)C)N(C)C1=O [compound 22] (cyclo([Ala(4-thiazolyl)][dNMeA][Nme][Phe(4-F)][Aze][Phe(4-Cl)][NMePhe(4-F)][dP][hSer](Me)[NMeV]))	7.30 to 7.60
COCC[C@@H]1NC(=O)[C@H]2CCCN2C(=O)[C@H](Cc2ccccc2)N(C)C(=O)[C@H](Cc2ccc(Cl)cc2)NC(=O)[C@H](CC2CCCC2)N(C)C(=O)[C@H](Cc2ccc(F)cc2)NC(=O)CN(CCOC)C(=O)[C@@H](C)N(C)C(=O)[C@H](Cc2cscn2)NC(=O)[C@H](C)N(C)C1=O [compound 10] (cyclo([Ala(4-thiazolyl)][dNMeA][Nme][Phe(4-F)][NMeAla(cPent)][Phe(4-Cl)][NMeF][dP][hSer](Me)[NMeA]))	≤ 7.00
COCC[C@@H]1NC(=O)[C@H]2CCCN2C(=O)[C@H](Cc2ccccc2)N(C)C(=O)[C@H](Cc2ccc(Cl)cc2)NC(=O)[C@H]([C@@H](C)OC(=O)COC)NC(=O)[C@H](Cc2ccc(F)cc2)NC(=O)CN(CCOC)C(=O)[C@@H](C)N(C)C(=O)[C@H](Cc2cscn2)NC(=O)[C@H](C)N(C)C1=O [compound 4] (cyclo([Ala(4-thiazolyl)][dNMeA][Nme][Phe(4-F)]T(Methoxyacetyl)[Phe(4-Cl)][NMeF][dP][hSer](Me)[NMeA]))	7.30 to 7.60
CC[C@H](C)[C@@H]1NC(=O)[C@H](Cc2ccc(F)cc2)NC(=O)CN(CCOC)C(=O)[C@@H](C)N(C)C(=O)[C@H](Cc2cscn2)NC(=O)[C@H](C)N(C)C(=O)[C@H](CCOC)NC(=O)[C@H]2CCCN2C(=O)[C@H](Cc2ccccc2)N(C)C(=O)[C@H](Cc2ccc(Cl)cc2)NC1=O [compound 16] (cyclo([Ala(4-thiazolyl)][dNMeA][Nme][Phe(4-F)]I[Phe(4-Cl)][NMeF][dP][hSer](Me)[NMeA]))	7.30 to 7.60

---

target: Human MDM2 (HDM2) 1-116 (Homo sapiens)
Sequence (Q00987 1-116): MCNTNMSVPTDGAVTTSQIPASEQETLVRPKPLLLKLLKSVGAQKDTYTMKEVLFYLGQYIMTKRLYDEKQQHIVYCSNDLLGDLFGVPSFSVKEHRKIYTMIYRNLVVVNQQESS
pIC50: −log10 of the molar value. Where a SMILES comes first, the peptide text is derived from it. [ ]: non-standard residue; d: D form. The star is where a group is joined. Ala(thiazol-5-yl) = N[C@@H](Cc1cncs1)C(=O)O; Ala(4-thiazolyl) = N[C@@H](Cc1cscn1)C(=O)O; NMePhe(4-F) = CN[C@@H](Cc1ccc(F)cc1)C(=O)O; Phe(4-Cl) = N[C@@H](Cc1ccc(Cl)cc1)C(=O)O; Phe(4-F) = N[C@@H](Cc1ccc(F)cc1)C(=O)O; NMeCba = CN[C@@H](CC1CCC1)C(=O)O; NMeF = CN[C@@H](Cc1ccccc1)C(=O)O; NMeI = CC[C@H](C)[C@H](NC)C(=O)O; NMeT = CN[C@H](C(=O)O)[C@@H](C)O; NMeV = CN[C@H](C(=O)O)C(C)C; hSer = N[C@@H](CCO)C(=O)O; NMeA = CN[C@@H](C)C(=O)O; dNMeA = CN[C@H](C)C(=O)O; Aze = O=C(O)[C@@H]1CCN1; Butyryl = CCCC(=O)*; Nme = COCCNCC(=O)O; Sar = CNCC(=O)O
Recorded pIC50 by entry

MOLECULE	pIC50
COCC[C@@H]1NC(=O)[C@H]2CCCN2C(=O)[C@H](Cc2ccccc2)N(C)C(=O)[C@H](Cc2ccc(Cl)cc2)NC(=O)[C@H](C(C)C)NC(=O)[C@H](Cc2ccc(F)cc2)NC(=O)CN(C)C(=O)[C@@H](C)N(C)C(=O)[C@H](Cc2cscn2)NC(=O)[C@H](C)N(C)C1=O [compound 13] (cyclo([Ala(4-thiazolyl)][dNMeA][Sar][Phe(4-F)]V[Phe(4-Cl)][NMeF][dP][hSer](Me)[NMeA]))	> 7.60
COCC[C@@H]1NC(=O)[C@H]2CCCN2C(=O)[C@H](Cc2ccc(F)cc2)N(C)C(=O)[C@H](Cc2ccc(Cl)cc2)NC(=O)[C@@H]2CCN2C(=O)[C@H](Cc2ccc(F)cc2)NC(=O)CN(CCOC)C(=O)[C@@H](C)N(C)C(=O)[C@H](Cc2cscn2)NC(=O)CN(C)C1=O [compound 23] (cyclo([Ala(4-thiazolyl)][dNMeA][Nme][Phe(4-F)][Aze][Phe(4-Cl)][NMePhe(4-F)][dP][hSer](Me)[Sar]))	7.00 to 7.30
CC[C@H](C)[C@@H]1NC(=O)[C@H](Cc2ccc(F)cc2)NC(=O)CN(CCOC)C(=O)[C@@H](C)N(C)C(=O)[C@H](Cc2cscn2)NC(=O)[C@H](C)N(C)C(=O)[C@H](CCOC)NC(=O)[C@H]2CCCN2C(=O)[C@H](Cc2ccccc2)N(C)C(=O)[C@H](Cc2ccc(Cl)cc2)NC1=O [compound 16] (cyclo([Ala(4-thiazolyl)][dNMeA][Nme][Phe(4-F)]I[Phe(4-Cl)][NMeF][dP][hSer](Me)[NMeA]))	> 7.60
CCCC(=O)O[C@H](C)[C@@H]1NC(=O)[C@H](Cc2ccc(F)cc2)NC(=O)CN(CCOC)C(=O)[C@@H](C)N(C)C(=O)[C@H](Cc2cscn2)NC(=O)[C@H](C)N(C)C(=O)[C@H](CCOC)NC(=O)[C@H]2CCCN2C(=O)[C@H](Cc2ccccc2)N(C)C(=O)[C@H](Cc2ccc(Cl)cc2)NC1=O [compound 6] (cyclo([Ala(4-thiazolyl)][dNMeA][Nme][Phe(4-F)]T(Butyryl)[Phe(4-Cl)][NMeF][dP][hSer](Me)[NMeA]))	7.30 to 7.60
COCC[C@@H]1NC(=O)[C@H]2CCCN2C(=O)[C@H](Cc2ccccc2)N(C)C(=O)[C@H](Cc2ccc(Cl)cc2)NC(=O)[C@H](CC2CCC2)N(C)C(=O)[C@H](Cc2ccc(F)cc2)NC(=O)CN(CCOC)C(=O)[C@@H](C)N(C)C(=O)[C@H](Cc2cscn2)NC(=O)[C@H](C)N(C)C1=O [compound 9] (cyclo([Ala(4-thiazolyl)][dNMeA][Nme][Phe(4-F)][NMeCba][Phe(4-Cl)][NMeF][dP][hSer](Me)[NMeA]))	> 7.60
COCC[C@@H]1NC(=O)[C@H]2CCCN2C(=O)[C@H](Cc2ccccc2)N(C)C(=O)[C@H](Cc2ccc(Cl)cc2)NC(=O)[C@H]([C@@H](C)OC)N(C)C(=O)[C@H](Cc2ccc(F)cc2)NC(=O)CN(CCOC)C(=O)[C@@H](C)N(C)C(=O)[C@H](Cc2cscn2)NC(=O)[C@H](C)N(C)C1=O [compound 20] (cyclo([Ala(4-thiazolyl)][dNMeA][Nme][Phe(4-F)][NMeT](Me)[Phe(4-Cl)][NMeF][dP][hSer](Me)[NMeA]))	> 7.60
CC[C@H](C)[C@H]1C(=O)N[C@@H](Cc2ccc(Cl)cc2)C(=O)N(C)[C@@H](Cc2ccccc2)C(=O)N2CCC[C@@H]2C(=O)N[C@@H](CCOC)C(=O)N(C)[C@@H](C)C(=O)N[C@@H](Cc2cscn2)C(=O)N(C)[C@H](C)C(=O)N(CCOC)CC(=O)N[C@@H](Cc2ccc(F)cc2)C(=O)N1C [compound 17] (cyclo([Ala(4-thiazolyl)][dNMeA][Nme][Phe(4-F)][NMeI][Phe(4-Cl)][NMeF][dP][hSer](Me)[NMeA]))	> 7.60
COCC[C@@H]1NC(=O)[C@H]2CCCN2C(=O)[C@H](Cc2ccc(F)cc2)N(C)C(=O)[C@H](Cc2ccc(Cl)cc2)NC(=O)[C@@H]2CCN2C(=O)[C@H](Cc2ccc(F)cc2)NC(=O)CN(CCOC)C(=O)[C@@H](C)N(C)C(=O)[C@H](Cc2cscn2)NC(=O)[C@@H]2CCCN2C1=O [compound 21] (cyclo([Ala(4-thiazolyl)][dNMeA][Nme][Phe(4-F)][Aze][Phe(4-Cl)][NMePhe(4-F)][dP][hSer](Me)P))	7.00 to 7.30
COCC[C@@H]1NC(=O)[C@H]2CCCN2C(=O)[C@H](Cc2ccccc2)N(C)C(=O)[C@H](Cc2ccc(Cl)cc2)NC(=O)[C@H](C(C)C)N(C)C(=O)[C@H](Cc2ccc(F)cc2)NC(=O)[C@H](C)N(C)C(=O)[C@@H](C)N(C)C(=O)[C@H](Cc2cncs2)NC(=O)[C@H](C)N(C)C1=O [compound 26] (cyclo([NMeA][Phe(4-F)][NMeV][Phe(4-Cl)][NMeF][dP][hSer](Me)[NMeA][Ala(thiazol-5-yl)][dNMeA]))	> 7.60
COCC[C@@H]1NC(=O)[C@H]2CCCN2C(=O)[C@H](Cc2ccccc2)N(C)C(=O)[C@H](Cc2ccc(Cl)cc2)NC(=O)[C@H]([C@@H](C)OC(C)=O)NC(=O)[C@H](Cc2ccc(F)cc2)NC(=O)CN(CCOC)C(=O)[C@@H](C)N(C)C(=O)[C@H](Cc2cscn2)NC(=O)[C@H](C)N(C)C1=O [compound 1] (cyclo([Ala(4-thiazolyl)][dNMeA][Nme][Phe(4-F)]T(Ac)[Phe(4-Cl)][NMeF][dP][hSer](Me)[NMeA]))	> 7.60
